Give measured OFS (surface tension) for each item. Keep answers brief.
- Protocol Text: Measurement of surface tension at suspended drop (Drop Shape Analyser DSA 25)
- Type: physicochemical
- Condition Parameters: surfactant in water 0.05 wt %; n = 10; drop approx. 5 μl, * 8 μl, ** 20 μl
Marks after values point to notes of the source that are not given here.

Below, 3 molecules whose answers are already recorded.
Molecule: CS(=O)(=O)O.Cn1ccnc1SCCC(F)(F)C(F)(F)C(F)(F)C(F)(F)C(F)(F)C(F)(F)F
OFS (surface tension): 24.39 mN/m
--
Molecule: O=C(O)C(F)(F)C(F)(F)C(F)(F)C(F)(F)C(F)(F)C(F)(F)C(F)(F)F [Perfluorooctanoic acid, reference compound]
OFS (surface tension): 55.68** mN/m
--
Molecule: N.O=C(O)C(F)(F)C(F)OC(F)(F)C(F)(F)C(F)(F)OC(F)(F)F (stereo not shown) [Ammonium-4,8-dioxa-3H-perfluorononanoate, reference compound]
OFS (surface tension): 64.87** mN/m

Which OFS (surface tension) value belongs to Cn1cc[n+](CCCS(=O)(=O)[O-])c1SCCC(F)(F)C(F)(F)C(F)(F)C(F)(F)C(F)(F)C(F)(F)F [Synthesis Example 6] ?
29.74* mN/m

All figures here come from patent US10792633B2.
